- assay system: Tet(X4) (Escherichia coli)
- assay text: Absorbance activity assay (tigecycline turnover, A400)
- Format: biochemical
Would you mind telling me the reported pIC50 of each entry?
Bear in mind: pIC50 is minus log10 of a mol/L concentration; give just that figure.

Query the reported pIC50 for Tet(X4) (Escherichia coli); item: Cc1c2c(c(O)c3c(O)cccc13)C(=O)[C@]1(O)C(=O)C(C(N)=O)=C(O)[C@@H](N(C)C)[C@@H]1C2 [Anhydrotetracycline]
5.12

Query the reported pIC50 for Tet(X4) (Escherichia coli); item: `CC1=CC(=O)c2c(O)cccc2C1=O`
4.31

====

- System: E. coli TOP10 containing plasmid pBAD-TOPO-Tet(X4)
- assay text: Broth microdilution MIC and checkerboard assay
- Format: cell-based, Escherichia coli
- settings: inhibitor in combination with tigecycline, lowest FICI; 0.2%w/v L-arabinose
Would you mind telling me the reported Combination (antibiotic/inhibitor) MIC: inhibitor of each entry?
Provide the reading as a plain figure in µg/mL.

Entry under review: `[H]/N=C(/NCCCCC)N/N=C/c1c[nH]c2ccc(OC)cc12` . Reported Combination (antibiotic/inhibitor) MIC: inhibitor?
8

Entry under review: `O=C(c1ccc(OCCN2CCCCC2)cc1)c1c(-c2ccc(O)cc2)sc2cc(O)ccc12` . Reported Combination (antibiotic/inhibitor) MIC: inhibitor?
128

Entry under review: `CN1CCN(CCCN2c3ccccc3Sc3ccc(Cl)cc32)CC1` . Reported Combination (antibiotic/inhibitor) MIC: inhibitor?
16

Entry under review: COc1cc(C)c2c(Oc3cccc(C(F)(F)F)c3)c(OC)cc(NC(C)CCCN)c2n1 (stereo not drawn) . Reported Combination (antibiotic/inhibitor) MIC: inhibitor?
4

Entry under review: Cc1c2c(c(O)c3c(O)cccc13)C(=O)[C@]1(O)C(=O)C(C(N)=O)=C(O)[C@@H](N(C)C)[C@@H]1C2 [Anhydrotetracycline] . Reported Combination (antibiotic/inhibitor) MIC: inhibitor?
2

Entry under review: `CN1CCN(CCCN2c3ccccc3Sc3ccc(C(F)(F)F)cc32)CC1` . Reported Combination (antibiotic/inhibitor) MIC: inhibitor?
8

====

- assay system: Tet(X4) (Escherichia coli)
- assay text: Absorbance activity assay (tigecycline turnover, A400)
- Type: biochemical
- settings: 25 μM tigecycline, 50 nM Tet(X4), 250 μM NADPH, 5 mM MgCl2, 1 μM FAD, 100 mM TAPS pH 8.5; read-out: IC50, Absorbance assay
experimental endpoint: IC50 (µM)
Provide the reading as a plain figure in µM.

Query the reported IC50 for Tet(X4) (Escherichia coli); item: COC1=CC(=O)c2ccccc2C1=O [2-Methoxy-1,4-naphthoquinone]
421

Query the reported IC50 for Tet(X4) (Escherichia coli); item: Cc1c2c(c(O)c3c(O)c(Br)ccc13)C(=O)[C@@]1(O)C(=O)C(C(N)=O)=C(O)[C@@H](N(C)C)[C@@H]1C2 [9-Bromo-anhydrotetracycline]
4.5

====

- Test system: Escherichia coli T-24a – tet(X4)
- assay text: microbe, parasite or virus in culture
- Assay type: cell-based
- settings: Escherichia coli, read-out: Tet(X) Inhibitor MIC, alone; E. coli T-24a
Would you mind telling me the reported MIC of each entry?
Provide the reading as a plain figure in mg/L.

Entry under review: `[H]/N=C(/NCCCCC)N/N=C/c1c[nH]c2ccc(OC)cc12` . Reported MIC?
16

Entry under review: `CN1CCN(CCCN2c3ccccc3Sc3ccc(C(F)(F)F)cc32)CC1` . Reported MIC?
256

Entry under review: `CN1CCN(CCCN2c3ccccc3Sc3ccc(Cl)cc32)CC1` . Reported MIC?
256

Entry under review: Cc1c2c(c(O)c3c(O)cccc13)C(=O)[C@]1(O)C(=O)C(C(N)=O)=C(O)[C@@H](N(C)C)[C@@H]1C2 [Anhydrotetracycline] . Reported MIC?
64

Entry under review: `O=C(c1ccc(OCCN2CCCCC2)cc1)c1c(-c2ccc(O)cc2)sc2cc(O)ccc12` . Reported MIC?
256
